This collection of values is drawn from ChEMBL document CHEMBL4725328.

tgt: Cathepsin B (Homo sapiens, UniProt P07858)
procedure_summary: Inhibition of human cathepsin B assessed as residual activity at 10 uM using Z-Arg-Arg-pNA as substrate measured after 60 mins by spectrophotometric assay relative to control
metric_name: Activity (%)

INSERT INTO measurements (chem_smiles, unit_abbrev, quantitative_readout) VALUES
  ('CC(C)C[C@H](NS(=O)(=O)c1cccc(-c2ccccc2)c1)C(=O)NC1(C#N)CC1', '%', 87),
  ('N#CC1(NC(=O)[C@H](Cc2ccccc2)NS(=O)(=O)c2cccc(-c3ccccc3)c2)CC1', '%', 86),
  ('CC(C)C[C@H](NS(=O)(=O)c1ccc(-c2ccccc2)cc1)C(=O)NC1(C#N)CC1', '%', 86),
  ('CC(C)C[C@H](NS(=O)(=O)c1ccccc1)C(=O)N[C@H](C#N)Cc1ccccc1', '%', 84),
  ('CC(C)C[C@H](NS(=O)(=O)c1cccc(Br)c1)C(=O)NC1(C#N)CC1', '%', 83),
  ('CC(C)C[C@H](NS(=O)(=O)c1ccc(-c2ccccc2)cc1)C(=O)N[C@H](C#N)Cc1ccccc1', '%', 92),
  ('CC(C)C[C@H](NS(=O)(=O)c1cccc(-c2ccc(F)cc2)c1)C(=O)NC1(C#N)CC1', '%', 91),
  ('CC(C)C[C@H](NS(=O)(=O)c1ccc(-c2ccc(F)cc2)cc1)C(=O)NC1(C#N)CC1', '%', 89);
